Consider the following compounds; for each one, report its Th-227 in small intestine.
- Assay info: Biodistribution study in LNCaP tumor-bearing mice (Th227 counted in organs)
- Assay type: in vivo, SCID mice
- Experimental conditions: 0.25 h; 1500 kBq/kg
- From the text: SCID mice were randomly assigned to experimental groups, ten animals per group (efficacy) or n=3-5 per time point of biodistribution study. […] At the predetermined time point, n=3 animals were sacrificed, the organs removed, weight and measured in a Germanium detector to count the Th227 in the sample.
Answer with the number, then the unit.

Field request: Th-227 in small intestine | item: O=C([O-])CN1CCN(CC(=O)[O-])CCN(CC(=O)NCc2ccc(C(=O)N[C@@H](Cc3ccc4ccccc4n3)C(=O)NCCCC[C@H](NC(=O)N[C@@H](CCC(=O)O)C(=O)O)C(=O)O)nc2)CCN(CC(=O)[O-])CC1.[227Th+4] [Example 34-B-227Th]
1.36% ID Th-227/g organ

Field request: Th-227 in small intestine | item: O=C([O-])CN1CCN(CC(=O)[O-])CCN(CC(=O)NCC2CCC(C(=O)NC(Cc3ccc4ccccc4c3)C(=O)NCCCCC(NC(=O)NC(CCC(=O)O)C(=O)O)C(=O)O)CC2)CCN(CC(=O)[O-])CC1.[227Th+4] (stereo not drawn) [Example 1-B-227Th]
1.14% ID Th-227/g organ

Field request: Th-227 in small intestine | item: Cc1cc(C(=O)NCCN(CCCN(CCNC(=O)c2cc(C)n(CC(=O)O)c(=O)c2[O-])CCNC(=O)c2cc(C)n(CC(=O)NCC3CCC(C(=O)NC(Cc4cnc5ccccc5c4)C(=O)NCCCCC(NC(=O)NC(CCC(=O)O)C(=O)O)C(=O)O)CC3)c(=O)c2[O-])CCNC(=O)c2cc(C)n(CC(=O)NCC3CCC(C(=O)NC(Cc4cnc5ccccc5c4)C(=O)NCCCCC(NC(=O)NC(CCC(=O)O)C(=O)O)C(=O)O)CC3)c(=O)c2[O-])c([O-])c(=O)n1CC(=O)O.[227Th+4] (stereo not drawn) [Example 22-C dimer-227Th]
1.64% ID Th-227/g organ

###

- Assay info: Biodistribution study in LNCaP tumor-bearing mice (Th227 counted in organs)
- Assay type: in vivo, SCID mice
- Experimental conditions: 0.25 h; 1500 kBq/kg
Quantity measured: Th-227 in large intestine (% ID Th-227/g organ)
Provide only the numeric value, understood in % ID Th-227/g organ.

Field request: Th-227 in large intestine | item: O=C([O-])CN1CCN(CC(=O)[O-])CCN(CC(=O)NCC2CCC(C(=O)NC(Cc3ccc4ccccc4c3)C(=O)NCCCCC(NC(=O)NC(CCC(=O)O)C(=O)O)C(=O)O)CC2)CCN(CC(=O)[O-])CC1.[227Th+4] [Example 1-B-D-227Th]
0.75

Field request: Th-227 in large intestine | item: O=C([O-])CN1CCN(CC(=O)[O-])CCN(CC(=O)NCC2CCC(C(=O)NC(Cc3ccc4ccccc4c3)C(=O)NCCCCC(NC(=O)NC(CCC(=O)O)C(=O)O)C(=O)O)CC2)CCN(CC(=O)[O-])CC1.[227Th+4] (stereo not drawn) [Example 1-B-227Th]
1.08

Field request: Th-227 in large intestine | item: O=C([O-])CN1CCN(CC(=O)[O-])CCN(CC(=O)NCc2ccc(C(=O)N[C@@H](Cc3ccc4ccccc4n3)C(=O)NCCCC[C@H](NC(=O)N[C@@H](CCC(=O)O)C(=O)O)C(=O)O)nc2)CCN(CC(=O)[O-])CC1.[227Th+4] [Example 34-B-227Th]
0.67

###

Consider the following compounds; for each one, report its Th-227 in Tumor.
- Assay info: Biodistribution study in LNCaP tumor-bearing mice (Th227 counted in organs)
- Assay type: in vivo, SCID mice
- Experimental conditions: 0.25 h; 1500 kBq/kg
Provide only the numeric value, understood in % ID Th-227/g organ.

Field request: Th-227 in Tumor | item: O=C([O-])CN1CCN(CC(=O)[O-])CCN(CC(=O)NCc2ccc(C(=O)N[C@@H](Cc3ccc4ccccc4n3)C(=O)NCCCC[C@H](NC(=O)N[C@@H](CCC(=O)O)C(=O)O)C(=O)O)nc2)CCN(CC(=O)[O-])CC1.[227Th+4] [Example 34-B-227Th]
6.33

Field request: Th-227 in Tumor | item: O=C([O-])CN1CCN(CC(=O)[O-])CCN(CC(=O)NCC2CCC(C(=O)NC(Cc3ccc4ccccc4c3)C(=O)NCCCCC(NC(=O)NC(CCC(=O)O)C(=O)O)C(=O)O)CC2)CCN(CC(=O)[O-])CC1.[227Th+4] [Example 1-B-D-227Th]
2.08

Field request: Th-227 in Tumor | item: Cc1cc(C(=O)NCCN(CCCN(CCNC(=O)c2cc(C)n(CC(=O)O)c(=O)c2[O-])CCNC(=O)c2cc(C)n(CC(=O)NCC3CCC(C(=O)NC(Cc4cnc5ccccc5c4)C(=O)NCCCCC(NC(=O)NC(CCC(=O)O)C(=O)O)C(=O)O)CC3)c(=O)c2[O-])CCNC(=O)c2cc(C)n(CC(=O)NCC3CCC(C(=O)NC(Cc4cnc5ccccc5c4)C(=O)NCCCCC(NC(=O)NC(CCC(=O)O)C(=O)O)C(=O)O)CC3)c(=O)c2[O-])c([O-])c(=O)n1CC(=O)O.[227Th+4] (stereo not shown) [Example 22-C dimer-227Th]
4.57

Field request: Th-227 in Tumor | item: O=C([O-])CN1CCN(CC(=O)[O-])CCN(CC(=O)NCC2CCC(C(=O)NC(Cc3ccc4ccccc4c3)C(=O)NCCCCC(NC(=O)NC(CCC(=O)O)C(=O)O)C(=O)O)CC2)CCN(CC(=O)[O-])CC1.[227Th+4] (stereo not shown) [Example 1-B-227Th]
6.89

###

- Tested on: PSMA-expressing LNCaP cells (Homo sapiens, UniProt Q04609)
- Construct: PSMA-expressing LNCaP cells; endogenous in cells; host or cells: LNCaP
- Sequence (Q04609 whole entry): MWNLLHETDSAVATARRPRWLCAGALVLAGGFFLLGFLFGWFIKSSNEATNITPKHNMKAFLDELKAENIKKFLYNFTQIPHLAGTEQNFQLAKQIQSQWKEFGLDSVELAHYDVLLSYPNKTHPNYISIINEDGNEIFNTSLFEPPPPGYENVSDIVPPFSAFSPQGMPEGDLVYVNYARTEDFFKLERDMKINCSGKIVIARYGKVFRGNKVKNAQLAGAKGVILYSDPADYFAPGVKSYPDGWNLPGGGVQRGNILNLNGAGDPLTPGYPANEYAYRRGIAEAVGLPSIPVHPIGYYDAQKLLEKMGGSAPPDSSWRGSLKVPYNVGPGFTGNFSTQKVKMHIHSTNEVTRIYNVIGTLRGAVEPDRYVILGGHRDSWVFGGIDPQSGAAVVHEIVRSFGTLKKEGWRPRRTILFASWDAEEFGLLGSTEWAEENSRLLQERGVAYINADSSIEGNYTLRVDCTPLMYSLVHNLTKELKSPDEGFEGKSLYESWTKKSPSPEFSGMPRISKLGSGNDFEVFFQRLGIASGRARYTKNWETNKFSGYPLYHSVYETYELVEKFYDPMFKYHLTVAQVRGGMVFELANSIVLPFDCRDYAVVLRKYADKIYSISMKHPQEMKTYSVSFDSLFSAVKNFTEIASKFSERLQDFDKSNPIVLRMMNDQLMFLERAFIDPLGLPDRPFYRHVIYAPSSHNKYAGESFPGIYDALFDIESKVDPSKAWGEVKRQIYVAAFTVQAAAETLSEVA
- Assay info: Internalization assay (membrane bound and internalized Th-227)
- Type: cell-based
- Experimental conditions: 10 nM radiolabeled compound, Th-227 at 375 kBq/nmol; 30 min incubation; triplicates
- Method: For internalization assays 24 well plates (#3526, Corning) were coated with 200 μl Poly-L-Lysine (0.1 mg/ml, #3438-100-01, Fa. Cultrex) per well for 2 h at 37° C. […] Cells were incubated at 37° C. and 5% CO2 over night. […] Radiochemical purity of the labeling was analyzed by instant thin layer chromatography and found to be above 70% for all compounds used. […] The resulting counts were attributed to membrane bound radioactivity. […] Measured radioactivity was attributed to internalized fraction. […]
Quantity measured: Membrane bound in LNCaP fmol/10^6 cells 30 min (fmol/10^6 cells)
Provide only the numeric value, understood in fmol/10^6 cells.

Field request: Membrane bound in LNCaP fmol/10^6 cells 30 min | item: CC1=CC2=C3[O][227Th-5]45678([O]C9=C(C=C(C)N(CC(=O)O)C9=[O+]4)C(=O)NCCN(CCCN(CCNC(=O)C4=C([O]5)C(=[O+]6)N(CC(=O)O)C(C)=C4)CCNC(=O)C4=C([OH+]7)C(=[O+]8)N(CC(=O)NC[C@H]5CC[C@H](C(=O)N[C@@H](Cc6ccc7ccccc7c6)C(=O)NCCCC[C@H](NC(=O)N[C@@H](CCC(=O)O)C(=O)O)C(=O)O)CC5)C(C)=C4)CCNC2=O)[O+]=C3N1CC(=O)O [1-C monomer-227Th]
105

Field request: Membrane bound in LNCaP fmol/10^6 cells 30 min | item: O=C([O-])CN1CCN(CC(=O)[O-])CCN(CC(=O)NCC2CCC(C(=O)NC(Cc3ccc4ccccc4c3)C(=O)NCCCCC(NC(=O)NC(CCC(=O)O)C(=O)O)C(=O)O)CC2)CCN(CC(=O)[O-])CC1.[227Th+4] [Example 1-B-D-227Th]
16

Field request: Membrane bound in LNCaP fmol/10^6 cells 30 min | item: Cn1ccc2c(c1=O)[O][Th]13[O]c4c(ccn(C)c4=O)C(=O)NCCN(CCNC2=O)CC(Cc2ccc(NC(=O)CCC(=O)N[C@H](CCCNC(=N)N)C(=O)N[C@H](CCCNC(=N)N)C(=O)NC[C@H]4CC[C@H](C(=O)N[C@@H](Cc5ccc6ccccc6c5)C(=O)NCCCC[C@H](NC(=O)N[C@@H](CCC(=O)O)C(=O)O)C(=O)O)CC4)cc2)CN(CCNC(=O)c2ccn(C)c(=O)c2[O]1)CCNC(=O)c1ccn(C)c(=O)c1[O]3 (stereo partly drawn) [Example 46-E-227Th]
63

Field request: Membrane bound in LNCaP fmol/10^6 cells 30 min | item: Cc1cc2c(c(=O)n1CC(=O)O)[O][227Th]13[O]c4c(cc(C)n(CC(=O)O)c4=O)C(=O)NCCN(CCCN(CCNC2=O)CCNC(=O)c2cc(C)n(CC(=O)NCc4ccc(C(=O)N[C@@H](Cc5ccc6ccccc6n5)C(=O)NCCCC[C@H](NC(=O)N[C@@H](CCC(=O)O)C(=O)O)C(=O)O)nc4)c(=O)c2[O]1)CCNC(=O)c1cc(C)n(CC(=O)NCc2ccc(C(=O)N[C@@H](Cc4ccc5ccccc5n4)C(=O)NCCCC[C@H](NC(=O)N[C@@H](CCC(=O)O)C(=O)O)C(=O)O)nc2)c(=O)c1[O]3 [34-C dimer-227Th]
79

Field request: Membrane bound in LNCaP fmol/10^6 cells 30 min | item: Cc1cc2c(c(=O)n1CC(=O)O)[O][227Th]13[O]c4c(cc(C)n(CC(=O)O)c4=O)C(=O)NCCN(CCCN(CCNC(=O)c4cc(C)n(CC(=O)O)c(=O)c4[O]1)CCNC(=O)c1cc(C)n(CC(=O)NCc4ccc(C(=O)N[C@@H](Cc5ccc6ccccc6n5)C(=O)NCCCC[C@H](NC(=O)N[C@@H](CCC(=O)O)C(=O)O)C(=O)O)nc4)c(=O)c1[O]3)CCNC2=O [34-C monomer-227Th]
147

Field request: Membrane bound in LNCaP fmol/10^6 cells 30 min | item: O=C([O-])CN1CCN(CC(=O)[O-])CCN(CC(=O)NCC2CCC(C(=O)NC(Cc3ccc4ccccc4c3)C(=O)NCCCCC(NC(=O)NC(CCC(=O)O)C(=O)O)C(=O)O)CC2)CCN(CC(=O)[O-])CC1.[227Th+4] (stereo not drawn) [Example 1-B-227Th]
237
